Entry source: paper PMC3574188

Test target: BoNT/A LC (1-425aa) (Clostridium botulinum, UniProt P0DPI0)
Sequence (P0DPI0 1-425 limits assumed): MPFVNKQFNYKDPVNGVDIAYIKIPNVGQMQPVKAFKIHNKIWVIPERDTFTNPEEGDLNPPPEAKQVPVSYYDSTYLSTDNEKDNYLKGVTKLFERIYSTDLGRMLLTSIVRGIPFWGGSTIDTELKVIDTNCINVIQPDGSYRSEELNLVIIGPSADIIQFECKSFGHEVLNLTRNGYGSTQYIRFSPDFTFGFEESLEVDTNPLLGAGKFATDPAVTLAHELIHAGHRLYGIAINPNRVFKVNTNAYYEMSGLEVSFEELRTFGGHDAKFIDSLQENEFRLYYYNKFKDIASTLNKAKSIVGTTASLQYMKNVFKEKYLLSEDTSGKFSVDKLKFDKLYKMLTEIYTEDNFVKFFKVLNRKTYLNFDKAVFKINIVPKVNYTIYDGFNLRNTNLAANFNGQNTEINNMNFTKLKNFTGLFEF
Procedure text: biochemical
Overview of reported Ki across a group of compounds:
Value type: Ki

> print(dat)
                           molecular.string  test.value
1  O=C(CC12CC3CC(C1)CC(c1ccc(Br)cc1)(C3)C2)NO      ~30 nM
2  O=C(CC12CC3CC(C1)CC(c1ccc(Cl)cc1)(C3)C2)NO      ~30 nM
